tested on: MILI (PIWIL2) piRISC loaded with piRNA #1 (26 nt); assay: pre-steady-state target cleavage rate (min^-1); guide: piRNA #1 5'p-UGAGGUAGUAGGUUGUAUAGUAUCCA; MIWI and MILI are mouse PIWI proteins and EfPiwi is from a freshwater sponge; tags in brackets are library labels; higher = faster piRNA-guided slicing of the target; conditions: auxiliary factor: 500 nM mouse GTSF1;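 also: 1 nM active piRISC with 0.1 nM target library at 33 °C single turnover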
PARAMETER_MEASURED: pre-steady-state target cleavage rate

GGAGUGGAUAGUAUACAACCUACUACCUGA
0.0603
GGAGACGAUACUAUAGAACCUACUACCUCA
0.184
GGAGACCUUACUAUUCAACCUACUACGUCA
0.0709
GGAGACCUAUCUAUAGAACCUACUACCUGA
0.00618
GGAGACCUAUGAAUACAACCGUACUACCUCA
0.00389
GGAGUGCAUACAAUACAACCUACUACCUCA
0.186
GGAGACCUAUCUAUAGAAGCUACUACCUCA
0.143
GGAGACCUAACUAUACAACCUACAUCCUCA
0.0364
GGAGACCUAUGAAUACAACCUACUGCCUCA
0.0052
GGAGAGGAUACCUAUACAACCUACUACCUCA
0.123
GGAGACGAAACUAUACAACCUAGUACCUCA
0.0663
GGAGACCUAACUAUACAACCUACUACUCUCA
0.208
GGAGACCUAUGAUUACAAGCUUCUACCUCA
0.00347
GGAGUGGUUAGUAUACAACCUACUACCUCA
0.105
GGAGACCUUACUAUACAACCUACUGACCUCA
0.107
GGAGACCAUACUAUACUACCUACUACCUCA
0.158
GGAGACCUAACUAUACAACCUACUACCUACA
0.165
GGAGAGGAUACUAUUCAACGUACUACCUCA
0.0162
GGAGACCAUACUAUACAAGGUACUACCUCA
0.0713
GGAGACGAUACUAUACAACCUACUAGCACA
0.00848
GGAGACCUUACUAUACAACCUACUUCCUGA
0.0269
GGAGACCUUACUUAUCAACCUACUACCUCA
0.0518
GGAGACCAUACUAUACAACCUACUACCGCA
0.203
GGAGACCUUACUAUACAACCUCCUACCUCA
0.0597
GGAGAGGAUACAAUACAACCUACAACCUCA
0.115
GGAGACCUUACUAUACAACCUACUUCCUCA
0.0805
GGAGACCUUACUAUACUACGUACUACCUCA
0.0307
GGAGAGGAUAGAUUACAACCUACUACCUCA
0.0529
